Target: STK33 (human)
Protocol description: radiometric filter-binding kinase assay
Experimental conditions: compound 0.1 µM
Parameter measured: residual activity (%)
Write the number in % without appending the unit.

# value lookup — system STK33 (human), readout residual activity, item NC(=O)c1cc(-c2ccnc(NC3CCCCC3)c2)nc(N2CCNCC2)c1
103

# value lookup — system STK33 (human), readout residual activity, item CCCCCc1ccc(/C=C/[C@H](O)[C@@H](CO)NC)cc1
100

---

Target: CDK9 CCNT1 (human) (UniProt P50750+O60563)
Sequence (O60563 whole entry, looked up): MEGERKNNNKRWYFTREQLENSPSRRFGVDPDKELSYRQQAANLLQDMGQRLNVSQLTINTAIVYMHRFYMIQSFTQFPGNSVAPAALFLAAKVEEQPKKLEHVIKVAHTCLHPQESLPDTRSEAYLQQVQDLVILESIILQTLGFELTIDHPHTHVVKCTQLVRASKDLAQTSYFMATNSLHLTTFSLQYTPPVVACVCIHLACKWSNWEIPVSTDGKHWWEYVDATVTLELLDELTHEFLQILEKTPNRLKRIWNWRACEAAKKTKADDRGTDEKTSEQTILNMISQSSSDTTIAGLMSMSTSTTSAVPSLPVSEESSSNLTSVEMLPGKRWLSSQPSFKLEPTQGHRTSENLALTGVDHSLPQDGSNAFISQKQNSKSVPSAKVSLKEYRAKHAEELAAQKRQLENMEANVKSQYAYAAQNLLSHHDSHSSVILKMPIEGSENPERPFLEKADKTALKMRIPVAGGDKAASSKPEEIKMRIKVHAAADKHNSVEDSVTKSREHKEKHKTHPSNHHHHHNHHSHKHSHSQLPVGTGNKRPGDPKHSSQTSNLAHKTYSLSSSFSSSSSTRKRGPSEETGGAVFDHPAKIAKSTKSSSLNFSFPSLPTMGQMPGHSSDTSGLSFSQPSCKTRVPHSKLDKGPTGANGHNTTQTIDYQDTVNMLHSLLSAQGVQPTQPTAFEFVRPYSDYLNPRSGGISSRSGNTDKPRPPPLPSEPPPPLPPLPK
Sequence (P50750 whole entry, looked up): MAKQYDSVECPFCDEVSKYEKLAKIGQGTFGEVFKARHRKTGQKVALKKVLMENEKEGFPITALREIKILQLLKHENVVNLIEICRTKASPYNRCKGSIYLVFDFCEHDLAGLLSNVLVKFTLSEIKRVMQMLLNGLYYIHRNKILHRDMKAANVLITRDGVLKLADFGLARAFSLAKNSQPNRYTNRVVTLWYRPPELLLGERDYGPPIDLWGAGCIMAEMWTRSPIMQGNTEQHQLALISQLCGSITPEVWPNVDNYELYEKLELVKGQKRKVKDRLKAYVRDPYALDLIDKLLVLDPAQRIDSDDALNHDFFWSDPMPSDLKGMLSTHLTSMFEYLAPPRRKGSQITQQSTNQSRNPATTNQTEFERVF
Protocol description: radiometric filter-binding kinase assay
Experimental conditions: compound 1.0 µM
Documented residual activity across a set of molecules
Write the number in % without appending the unit.

Param item = NCC(=O)Nc1ccc(-n2nc(C(F)(F)F)cc2-c2ccc3c(ccc4ccccc43)c2)cc1 ; retrieve measured residual activity.
82

Param item = C=C1C(=O)OC2C1CC/C(C)=C/CCC1(C)OC21 (stereo not given) ; retrieve measured residual activity.
119

Param item = COc1cc(C(=O)N2CCOCC2)c(F)cc1Nc1ncc(C(F)(F)F)c(NC2CC2)n1 ; retrieve measured residual activity.
87

Param item = CCNc1nc(Nc2cc(F)c(C(=O)N3CCOCC3)cc2OC)ncc1C(F)(F)F ; retrieve measured residual activity.
96

Param item = COc1cc(O)c2c(c1)[C@H]1OC1C[C@H](O)[C@H](O)C(=O)/C=C\C[C@H](C)OC2=O (stereo not given in full) ; retrieve measured residual activity.
111

---

Documented residual activity across a set of molecules
Target: PIM2 (human)
Protocol description: radiometric filter-binding kinase assay
Experimental conditions: compound 10.0 µM
Write the number in % without appending the unit.

>  <Molecule>
Oc1ccc2ccccc2c1SSc1c(O)ccc2ccccc12

>  <Target>
PIM2 (human)

>  <residual activity [%]>
81

$$$$
>  <Molecule>
Cc1ccc(Sc2cnc(Nc3cccc(Br)n3)s2)cc1C(=O)N1CCN(C(=O)CN)CC1

>  <Target>
PIM2 (human)

>  <residual activity [%]>
77

$$$$
>  <Molecule>
Cc1cc(SCc2sc(-c3ccc(C(F)(F)F)cc3)nc2C)ccc1OCC(=O)O

>  <Target>
PIM2 (human)

>  <residual activity [%]>
106

$$$$

# value lookup — system PIM2 (human), readout residual activity, item FC(F)(F)c1ccc(-c2ccc(Oc3cncc4sc(-c5nn[nH]n5)cc34)cc2)cc1
36

# value lookup — system PIM2 (human), readout residual activity, item c1ccc2c(-c3cnn4cc(-c5ccc(N6CCNCC6)cc5)cnc34)ccnc2c1
92

# value lookup — system PIM2 (human), readout residual activity, item O=C(O)c1cc(N=Nc2ccc(S(=O)(=O)Nc3ccccn3)cc2)ccc1O
77

---

Documented residual activity across a set of compounds
Target: UniProtKB Q96GD4
Sequence (Q96GD4 whole entry, looked up): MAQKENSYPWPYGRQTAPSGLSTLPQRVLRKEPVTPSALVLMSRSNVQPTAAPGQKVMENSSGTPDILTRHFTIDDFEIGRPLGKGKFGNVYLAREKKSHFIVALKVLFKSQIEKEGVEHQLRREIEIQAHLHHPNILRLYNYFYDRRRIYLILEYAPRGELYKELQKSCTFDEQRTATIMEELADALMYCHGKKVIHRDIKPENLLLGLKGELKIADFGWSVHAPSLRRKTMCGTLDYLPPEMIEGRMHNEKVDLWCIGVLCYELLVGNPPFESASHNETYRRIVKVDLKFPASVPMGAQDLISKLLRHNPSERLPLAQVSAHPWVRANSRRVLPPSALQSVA
Protocol description: radiometric filter-binding kinase assay
Experimental conditions: compound 0.01 µM
Write the number in % without appending the unit.

>  <Compound>
CNc1nc(-c2ccc3c(N)n[nH]c3c2)cc(N2C[C@@H](C(=O)NC3CCCCC3)CC[C@H]2C)n1

>  <residual activity, %>
105

$$$$

# value lookup — system UniProtKB Q96GD4, readout residual activity, item CNC(=O)C1[C@H]2O[C@@](C)([C@@H]1N)n1c3ccccc3c3c4c(c5c6ccccc6n2c5c31)C(=O)NC4 (stereo not given in full)
49

# value lookup — system UniProtKB Q96GD4, readout residual activity, item COc1ccc(N(C(=O)Nc2c(C)cccc2C)c2cc(Nc3ccc(N4CCN(C)CC4)cc3)ncn2)c(OC)c1
93

# value lookup — system UniProtKB Q96GD4, readout residual activity, item O=C(Nc1nc2cc(C(F)(F)F)cc(NC3CC3)n2n1)c1cccnc1
93

# value lookup — system UniProtKB Q96GD4, readout residual activity, item COc1cc(O)c2c(c1)[C@H]1OC1C[C@H](O)[C@H](O)C(=O)/C=C\C[C@H](C)OC2=O (stereo not given in full)
90

---

Documented residual activity across a set of compounds
Target: BTK (human)
Protocol description: radiometric filter-binding kinase assay
Experimental conditions: compound 1.0 µM
Write the number in % without appending the unit.

Known results for compounds:
>  <Line notation>
NC(=O)Nc1ccc2c(c1)/C(=C/c1cc(-c3cccnc3)c[nH]1)C(=O)N2

>  <residual activity [%]>
29

$$$$
>  <Line notation>
O=c1c(O)c(-c2ccc(O)c(O)c2)oc2cc(O)c(O)c(O)c12

>  <residual activity [%]>
61

$$$$
>  <Line notation>
FC(F)(F)c1ccc(-c2ccc(Oc3cncc4sc(-c5nn[nH]n5)cc34)cc2)cc1

>  <residual activity [%]>
98

$$$$
>  <Line notation>
NCC(=O)Nc1ccc(-n2nc(C(F)(F)F)cc2-c2ccc3c(ccc4ccccc43)c2)cc1

>  <residual activity [%]>
98

$$$$
>  <Line notation>
Cc1nc(-c2ccc(OCC(C)C)c(C#N)c2)sc1C(=O)O

>  <residual activity [%]>
103

$$$$

Param item = CN(C)C/C=C/C(=O)Nc1cccc(C(=O)Nc2ccc(Nc3nccc(-c4cccnc4)n3)cc2)c1 ; retrieve measured residual activity.
85

Param item = C[C@H]1CCCC(=O)CCC/C=C/c2cc(O)cc(O)c2C(=O)O1 ; retrieve measured residual activity.
107

Param item = CCNc1nc(Nc2cc(F)c(C(=O)N3CCOCC3)cc2OC)ncc1C(F)(F)F ; retrieve measured residual activity.
131

---

Target: CaMK1 (human) (UniProt Q14012)
Sequence (Q14012 whole entry, looked up): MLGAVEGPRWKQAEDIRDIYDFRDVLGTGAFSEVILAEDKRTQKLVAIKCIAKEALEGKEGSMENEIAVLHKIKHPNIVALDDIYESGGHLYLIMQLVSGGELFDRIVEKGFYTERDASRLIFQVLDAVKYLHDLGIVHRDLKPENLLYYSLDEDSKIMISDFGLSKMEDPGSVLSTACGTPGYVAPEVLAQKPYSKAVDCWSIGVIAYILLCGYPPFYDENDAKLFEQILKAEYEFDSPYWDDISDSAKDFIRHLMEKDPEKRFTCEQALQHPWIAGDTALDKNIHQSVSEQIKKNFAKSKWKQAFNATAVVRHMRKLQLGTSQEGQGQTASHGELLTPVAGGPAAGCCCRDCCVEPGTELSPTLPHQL
Protocol description: radiometric filter-binding kinase assay
Experimental conditions: compound 1.0 µM
Hi, to clarify the labels: condition met covers residual activity from 90% upward, condition not met covers anything below 90%.

>  <Molecule>
O=C(NOCC(O)CO)c1ccc(F)c(F)c1Nc1ccc(I)cc1Cl (stereo not given)

>  <Target>
CaMK1 (human) (UniProt Q14012)

>  <Category label>
condition met

$$$$
>  <Molecule>
NC1(c2ccc(-c3nc4ccn5c(=O)[nH]nc5c4cc3-c3ccccc3)cc2)CCC1

>  <Target>
CaMK1 (human) (UniProt Q14012)

>  <Category label>
condition not met

$$$$
>  <Molecule>
O=C(Nc1ccccc1-c1cn2c(CN3CCNCC3)csc2n1)c1cnc2ccccc2n1

>  <Target>
CaMK1 (human) (UniProt Q14012)

>  <Category label>
condition not met

$$$$

State whether the measured residual activity reaches 90%, counting equality as reaching it, for FC(F)(F)c1ccc(-c2ccc(Oc3cncc4sc(-c5nn[nH]n5)cc34)cc2)cc1
condition met

---

Target: MAP3K11 (human) (UniProt Q16584)
Sequence (Q16584 whole entry, looked up): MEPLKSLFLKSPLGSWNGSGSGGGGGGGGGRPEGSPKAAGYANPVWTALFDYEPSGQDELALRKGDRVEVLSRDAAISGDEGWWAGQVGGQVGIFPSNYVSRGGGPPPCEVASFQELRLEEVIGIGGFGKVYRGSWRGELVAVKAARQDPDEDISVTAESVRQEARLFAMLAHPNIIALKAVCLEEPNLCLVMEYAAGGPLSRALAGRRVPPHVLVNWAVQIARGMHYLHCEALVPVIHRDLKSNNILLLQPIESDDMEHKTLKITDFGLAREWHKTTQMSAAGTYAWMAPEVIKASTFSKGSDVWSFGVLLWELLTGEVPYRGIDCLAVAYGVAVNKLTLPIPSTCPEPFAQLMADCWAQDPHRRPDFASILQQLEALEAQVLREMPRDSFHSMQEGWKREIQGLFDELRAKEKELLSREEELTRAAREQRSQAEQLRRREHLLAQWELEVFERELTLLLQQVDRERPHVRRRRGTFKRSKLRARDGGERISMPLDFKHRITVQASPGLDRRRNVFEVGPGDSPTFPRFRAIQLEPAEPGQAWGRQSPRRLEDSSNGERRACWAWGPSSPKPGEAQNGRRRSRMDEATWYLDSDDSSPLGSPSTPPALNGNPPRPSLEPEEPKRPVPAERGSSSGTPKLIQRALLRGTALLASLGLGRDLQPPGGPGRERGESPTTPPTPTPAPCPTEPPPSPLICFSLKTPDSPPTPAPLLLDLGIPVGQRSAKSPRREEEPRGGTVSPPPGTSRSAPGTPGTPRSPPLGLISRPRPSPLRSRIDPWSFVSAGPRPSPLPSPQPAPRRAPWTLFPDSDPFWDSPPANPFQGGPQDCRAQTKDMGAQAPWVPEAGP
Protocol description: radiometric filter-binding kinase assay
Experimental conditions: compound 10.0 µM
Parameter measured: residual activity (%)
Write the number in % without appending the unit.

>  <Line notation>
NC1(c2ccc(-c3nc4ccn5c(=O)[nH]nc5c4cc3-c3ccccc3)cc2)CCC1

>  <Target>
MAP3K11 (human) (UniProt Q16584)

>  <Unit of measurement>
%

>  <residual activity>
81

$$$$

Please turn your attention to the following entry.
# value lookup — system MAP3K11 (human) (UniProt Q16584), readout residual activity, item CCNc1nc(Nc2cc(F)c(C(=O)N3CCOCC3)cc2OC)ncc1C(F)(F)F
5

---

Target: RIPK2 (human) (UniProt O43353)
Sequence (O43353 whole entry, looked up): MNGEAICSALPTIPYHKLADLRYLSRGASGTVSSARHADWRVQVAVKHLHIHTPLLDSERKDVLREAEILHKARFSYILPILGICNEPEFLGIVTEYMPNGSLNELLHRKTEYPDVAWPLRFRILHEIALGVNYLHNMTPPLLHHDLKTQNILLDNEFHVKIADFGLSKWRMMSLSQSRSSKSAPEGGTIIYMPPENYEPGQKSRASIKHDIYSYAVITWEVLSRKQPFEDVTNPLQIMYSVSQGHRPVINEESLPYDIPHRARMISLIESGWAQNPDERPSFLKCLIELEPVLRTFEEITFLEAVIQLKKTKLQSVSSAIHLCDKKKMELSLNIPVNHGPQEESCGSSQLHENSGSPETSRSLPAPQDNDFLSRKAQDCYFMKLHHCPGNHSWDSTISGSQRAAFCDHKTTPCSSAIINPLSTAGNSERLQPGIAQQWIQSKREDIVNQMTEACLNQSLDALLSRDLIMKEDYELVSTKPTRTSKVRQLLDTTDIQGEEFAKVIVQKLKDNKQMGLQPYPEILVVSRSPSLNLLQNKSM
Protocol description: radiometric filter-binding kinase assay
Experimental conditions: compound 1.0 µM
Parameter measured: residual activity (%)
Write the number in % without appending the unit.

Known results for molecules:
>  <Line notation>
COc1ccc(N(C(=O)Nc2c(C)cccc2C)c2cc(Nc3ccc(N4CCN(C)CC4)cc3)ncn2)c(OC)c1

>  <residual activity, %>
8

$$$$
>  <Line notation>
Cc1ccc(Sc2cnc(Nc3cccc(Br)n3)s2)cc1C(=O)N1CCN(C(=O)CN)CC1

>  <residual activity, %>
17

$$$$

# value lookup — system RIPK2 (human) (UniProt O43353), readout residual activity, item O=C(O)c1cc(N=Nc2ccc(S(=O)(=O)Nc3ccccn3)cc2)ccc1O
115

---

Tested on: PRKAA1 or PRKAA2 (rat)
Protocol description: radiometric filter-binding kinase assay
Experimental conditions: compound 10.0 µM; accession and sequence are those of the human protein
Documented residual activity across a set of compounds
Write the number in % without appending the unit.

>  <Compound>
O=C1NC(=S)N[C@@H]1Cc1c[nH]c2ccccc12

>  <Target>
PRKAA1 or PRKAA2 (rat)

>  <Parameter measured>
residual activity

>  <Observed value>
95

$$$$
>  <Compound>
CCOC(=O)c1ccc(N2NC(=O)/C(=C/c3ccc([N+](=O)[O-])o3)C2=O)cc1

>  <Target>
PRKAA1 or PRKAA2 (rat)

>  <Parameter measured>
residual activity

>  <Observed value>
108

$$$$
>  <Compound>
O=c1c(O)c(-c2ccc(O)c(O)c2)oc2cc(O)c(O)c(O)c12

>  <Target>
PRKAA1 or PRKAA2 (rat)

>  <Parameter measured>
residual activity

>  <Observed value>
9

$$$$
>  <Compound>
N#Cc1c(O)c2c(-c3ccc(-c4ccccc4O)cc3)csc2[nH]c1=O

>  <Target>
PRKAA1 or PRKAA2 (rat)

>  <Parameter measured>
residual activity

>  <Observed value>
135

$$$$
>  <Compound>
O=C(Nc1ccccc1-c1cn2c(CN3CCNCC3)csc2n1)c1cnc2ccccc2n1

>  <Target>
PRKAA1 or PRKAA2 (rat)

>  <Parameter measured>
residual activity

>  <Observed value>
60

$$$$
>  <Compound>
Oc1ccc2ccccc2c1SSc1c(O)ccc2ccccc12

>  <Target>
PRKAA1 or PRKAA2 (rat)

>  <Parameter measured>
residual activity

>  <Observed value>
90

$$$$
>  <Compound>
O=C1Nc2nc(-c3c(O)cccc3OCC3CC3)cc(C3CCCNC3)c2CO1 (stereo not given)

>  <Target>
PRKAA1 or PRKAA2 (rat)

>  <Parameter measured>
residual activity

>  <Observed value>
54

$$$$
>  <Compound>
Cc1ccc(Sc2cnc(Nc3cccc(Br)n3)s2)cc1C(=O)N1CCN(C(=O)CN)CC1

>  <Target>
PRKAA1 or PRKAA2 (rat)

>  <Parameter measured>
residual activity

>  <Observed value>
3

$$$$
>  <Compound>
Cc1ccc(=O)n(-c2ccccc2)c1

>  <Target>
PRKAA1 or PRKAA2 (rat)

>  <Parameter measured>
residual activity

>  <Observed value>
103

$$$$

Please turn your attention to the following entry.
Param item = COc1ccc2c(c1)c1c3c(c4c5ccccc5n(C)c4c1n2CC(O)CN(C)C)C(=O)NC3=O (stereo not given) ; retrieve measured residual activity.
24
